Assay: Inhibition of tubulin polymerization in bovine brain after 20 mins by spectrophotometry
Set-up: species or system Bos taurus
MEASURE: IC50

What IC50 value was documented for this compound, `COc1ccc(/C=C\c2cc(OC)c(OC)c(OC)c2)c(O)c1O` ?
1.9 µM

Field entry: `COc1ccc(/C=C/c2cc(OC)c(OC)c(OC)c2)c(O)c1O`
11 µM

What about this compound? `COc1ccc(/C=C\c2cc(OC)c(OC)c(OC)c2)c(OP(=O)(O)O)c1O`
> 40 µM

Please do the same for `COc1cc(/C=C\c2ccc(OC)c(OP(=O)(O)O)c2O)cc(OC)c1OC` as well.
> 40 µM

Also need `COc1cc(/C=C\c2ccc(OC)c(OP(=O)(O)O)c2OP(=O)(O)O)cc(OC)c1OC` , thanks.
> 40 µM
